Values were extracted from ChEMBL document CHEMBL3885861.

Species on record: Rattus norvegicus
test-method-notes: Open TG-GATES - Regimen: Daily Repeat
Format: toxicity, organism-based, Sprague-Dawley
Set-up: regimen Daily Repeat, gender Male, age 6 weeks
test-parameters: in vivo, po, 0 mg/kg, […], tissue Plasma, route gavage, dose level Control, time 28 day
parameter-measured: CRE (mg/dL)
I only need the number, in mg/dL, no unit after it.

compound	value
CN(C)CCCN1c2ccccc2CCc2ccccc21	0.2

Prompt line: Entry CCCNC(=O)NS(=O)(=O)c1ccc(Cl)cc1 [CHLORPROPAMIDE] has what CRE?
Response line: 0.2

Prompt line: Entry CCOC(=O)CCC(=O)O[C@H]1[C@H](O[C@@H]2[C@@H](C)[C@H](O[C@H]3C[C@@](C)(OC)[C@@H](O)[C@H](C)O3)[C@@H](C)C(=O)O[C@H](CC)[C@@](C)(O)[C@H](O)[C@@H](C)C(=O)[C@H](C)C[C@@]2(C)O)O[C@H](C)C[C@@H]1N(C)C [ERYTHROMYCIN ETHYLSUCCINATE] has what CRE?
Response line: 0.2

Prompt line: Entry NC(N)=Nc1nc(CSCCC(N)=NS(N)(=O)=O)cs1 has what CRE?
Response line: 0.6

Prompt line: Entry CCOc1ccc(NC(=O)CC(C)O)cc1 (stereo not drawn) has what CRE?
Response line: 0.3

Prompt line: Entry COc1ccc2[nH]c([S+]([O-])Cc3ncc(C)c(OC)c3C)nc2c1 (stereo not drawn) has what CRE?
Response line: 0.5

Prompt line: Entry O=C(CCCN1CCC(O)(c2ccc(Cl)cc2)CC1)c1ccc(F)cc1 has what CRE?
Response line: 0.6

Prompt line: Entry NNC(=O)c1ccncc1 has what CRE?
Response line: 0.5
